# tgt: 20S proteasome in Jurkat cell lysates, CT-L activity (Homo sapiens, UniProt P28074)
# Sequence (P28074 60-263): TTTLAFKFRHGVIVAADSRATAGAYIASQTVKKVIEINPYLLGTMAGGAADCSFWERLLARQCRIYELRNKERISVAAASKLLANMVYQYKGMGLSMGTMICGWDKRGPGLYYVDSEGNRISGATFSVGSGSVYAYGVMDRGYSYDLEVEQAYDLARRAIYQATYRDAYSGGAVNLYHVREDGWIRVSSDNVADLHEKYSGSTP
# Sequence (P20618 29-241 partner): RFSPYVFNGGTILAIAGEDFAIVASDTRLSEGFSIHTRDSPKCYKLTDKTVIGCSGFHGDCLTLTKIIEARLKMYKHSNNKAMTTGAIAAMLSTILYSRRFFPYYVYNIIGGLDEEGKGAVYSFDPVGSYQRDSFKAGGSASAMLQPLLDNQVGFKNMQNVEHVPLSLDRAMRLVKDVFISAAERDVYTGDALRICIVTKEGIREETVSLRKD
# assay procedure: Proteasome inhibition assay in cell lysates, Jurkat, CT-L
# assay conditions: at 100 µM; Table 2 legend: bortezomib 10 µM
property name: percentage of proteasome inhibition, CT-L, cell lysates Jurkat (%)

compound	number
Cc1ccc2ccccc2c1CSc1ncnc2c1ncn2C1OC(CO)C(O)C1O (stereo not shown)	54
O=C1c2ccccc2C(=O)c2c(Nc3ccc(S(=O)(=O)N(CCO)CCO)cc3)ccc(O)c21	72
CC(C)c1nc(CN(C)C(=O)N[C@@H](CCN2CCOCC2)C(=O)N[C@H](CC[C@H](Cc2ccccc2)NC(=O)OCc2cncs2)Cc2ccccc2)cs1 [Compound 5, cobicistat, reference compound]	64
Cc1ccc(/C(=N/NS(=O)(=O)c2ccc([N+](=O)[O-])cc2)Sc2cc(Cl)c(C)cc2S(N)(=O)=O)cc1	33
